molecular target: human TRPV4 (hTRPV4/CHO cells) (Homo sapiens, UniProt Q9HBA0); construct: expressed in transfected cells; host or cells: CHO-K1; assay: Test Example 1: TRPV4 inhibitory activity (IC50 value), 4α-PDD stimulation, Fluo4 calcium fluorescence (FLIPR TETRA); type: cell-based; conditions: Test Example 1, 4α-PDD stimulation, read-out: Test 1 IC50
Sequence (Q9HBA0 whole entry): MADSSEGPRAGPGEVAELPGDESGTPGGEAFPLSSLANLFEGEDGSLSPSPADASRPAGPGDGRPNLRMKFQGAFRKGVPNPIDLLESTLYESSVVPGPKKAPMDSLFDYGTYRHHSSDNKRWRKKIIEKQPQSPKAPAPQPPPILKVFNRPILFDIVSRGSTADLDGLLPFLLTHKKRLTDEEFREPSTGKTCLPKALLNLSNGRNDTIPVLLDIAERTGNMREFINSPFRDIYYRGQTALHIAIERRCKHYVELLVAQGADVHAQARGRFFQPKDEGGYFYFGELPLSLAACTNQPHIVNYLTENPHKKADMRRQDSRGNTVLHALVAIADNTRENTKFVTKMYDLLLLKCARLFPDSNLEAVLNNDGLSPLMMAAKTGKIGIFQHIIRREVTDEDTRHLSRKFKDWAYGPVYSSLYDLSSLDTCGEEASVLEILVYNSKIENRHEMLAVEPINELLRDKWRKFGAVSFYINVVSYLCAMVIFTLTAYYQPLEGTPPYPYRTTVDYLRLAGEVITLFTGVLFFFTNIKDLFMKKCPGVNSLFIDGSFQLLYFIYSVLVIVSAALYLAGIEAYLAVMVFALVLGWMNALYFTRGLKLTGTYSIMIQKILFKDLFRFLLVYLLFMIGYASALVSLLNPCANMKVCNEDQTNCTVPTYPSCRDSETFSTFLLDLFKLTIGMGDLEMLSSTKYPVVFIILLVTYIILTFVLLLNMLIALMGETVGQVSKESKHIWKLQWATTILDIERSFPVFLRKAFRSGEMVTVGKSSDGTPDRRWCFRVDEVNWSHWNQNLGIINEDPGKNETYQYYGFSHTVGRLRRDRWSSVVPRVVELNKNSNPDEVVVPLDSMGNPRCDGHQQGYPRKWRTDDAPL
RECORDED METRIC: IC50

Kindly note the recorded IC50 for `Cc1nc(CO)sc1-c1csc(NC(=O)[C@@H]2C[C@@H](c3ccccc3)CN2C(=O)C(C)C)n1` , which is 100 to 1000 nM

Recorded IC50 (molecule `Cc1nc(C)c(-c2csc(NC(=O)CN3CCC(c4ccccc4)CC3)n2)s1` ): 100 to 1000 nM

IC50 measured on `Cc1nc(CO)sc1-c1csc(NC(=O)OC(C)(C)C)n1` = 1000 to 8000 nM

// recorded IC50 for Cc1nc(C(C)O)sc1-c1csc(NC(=O)Cc2ccc(S(=O)(=O)C(F)(F)F)cc2)n1 (racemic) : < 100 nM

`Cc1nc(CN2NCCC2=O)c(-c2csc(NC(=O)Cc3ccc(S(=O)(=O)C(F)(F)F)cc3)n2)s1` has a reported IC50 of 100 to 1000 nM

IC50 reported for this molecule `COCCOc1cc(CC(=O)Nc2nc(-c3sc(C)nc3C)cs2)cc(C(=O)N[C@H](c2ccccc2)C(F)(F)F)c1` : < 100 nM

Per the records, this molecule ( `Cc1nc(C(=O)NCCO)sc1-c1csc(NC(=O)Cc2c(F)cccc2F)n1` ) has IC50 equal to 1000 to 8000 nM

Sample `Cc1nc(CO)sc1-c1csc(NC(=O)CN2Cc3ccccc3C2)n1` ; IC50 observed: 100 to 1000 nM

What the record says about `Cc1nc(C)c(-c2csc(NC(=O)C3CC3)n2)s1` : IC50 is 100 to 1000 nM

Reported IC50 of `Cc1nc(C)c(-c2nc(NC(=O)Cc3c(F)cccc3F)sc2C(=O)Nc2ccccc2Cl)s1` : 1000 to 8000 nM

The value of IC50 measured for the molecule `Cc1nc(CO)sc1-c1csc(NC(=O)[C@H]2C[C@H](C(F)F)C2)n1` turned out to be 100 to 1000 nM

So for `Cc1nc(C)c(-c2csc(NC(=O)C3CN(c4ccc(C(F)(F)F)nc4)C3)n2)s1` , the logged IC50 turned out to be < 100 nM

Measured IC50 of Cc1nc(C(C)O)sc1-c1csc(NC(=O)C2CN(c3ccc(C(F)(F)F)cn3)C2)n1 (racemic) : 100 to 1000 nM

Sample Cc1nc(C)c(-c2csc(NC(=O)C3Cc4cc(S(=O)(=O)N(C)C)c(Cl)c(Cl)c4O3)n2)s1 (stereo not shown) ; IC50 observed: < 100 nM

The reported value for `CCCCCCNC(=O)c1sc(NC(=O)Cc2c(F)cccc2F)nc1-c1sc(C)nc1C` in terms of IC50 is 1000 to 8000 nM

So, `Cc1nc(C)c(-c2csc(NC(=O)C3CN(c4ncc(C(F)(F)F)cn4)C3)n2)s1` ? Its IC50 was < 100 nM
